System: Cryptococcus neoformans
Details: Concentration 20 uM; ASSAY_TEST Inhibition of Fungal Growth; detection method Resazurin; Absorption (OD600-OD570); plate type 384well; NBS; CORNING #3640
Description: Antifungal activity against Cryptococcus neoformans H99 ATCC 208821 (CO-ADD:FG_002); MIC in YNB media using NBS plates, by Resazurin OD(600-570)
Potency and affinity values are given separately.
quantity_kind: Inhibition (%)
# unit: % | format: bare number

In the examples that follow, each entry is paired with its recorded Inhibition.
What reported Inhibition corresponds to CCOC(=O)/C=C/c1nc(O)c(C)c(C(=O)OCC)n1 on Cryptococcus neoformans?
-10.31

What reported Inhibition corresponds to CC(C)=CCC/C(C)=C\C(N)=O on Cryptococcus neoformans?
-3.28

Next:
What reported Inhibition corresponds to Cn1c(N)c(/N=N/c2ccc(S(N)(=O)=O)cc2)c(=O)n(C)c1=O on Cryptococcus neoformans?
-0.3

What reported Inhibition corresponds to O=C(c1ccc(Cl)nc1)c1cccs1 on Cryptococcus neoformans?
-1.99

What reported Inhibition corresponds to O=C(Nc1ccc(O)c(C(=O)O)c1)Oc1ccccc1 on Cryptococcus neoformans?
-2.46

What reported Inhibition corresponds to Cn1cnc([N+](=O)[O-])c1Sc1n[nH]c(N)n1 on Cryptococcus neoformans?
-4.45

What reported Inhibition corresponds to Cc1cc(N2CCN(C)CC2)n2nc(-c3ccc(Cl)cc3)nc2n1 on Cryptococcus neoformans?
-6.75

What reported Inhibition corresponds to Oc1ccc(-c2nc3ccccc3s2)c(O)c1 on Cryptococcus neoformans?
-4.68

What reported Inhibition corresponds to c1ccc(-c2ccc(-c3nccc4ccccc34)[nH]2)cc1 on Cryptococcus neoformans?
-7.81

What reported Inhibition corresponds to Cc1cc(=O)oc2cc(OS(C)(=O)=O)ccc12 on Cryptococcus neoformans?
-11.39

What reported Inhibition corresponds to CCCCNC(=O)Nc1ccccc1CC on Cryptococcus neoformans?
-6.96

What reported Inhibition corresponds to Nc1c(Cl)ncnc1NCCO on Cryptococcus neoformans?
-0.36

What reported Inhibition corresponds to NC(=O)Oc1cccc(OC(N)=O)c1 on Cryptococcus neoformans?
-9.78

----------
# Lookup of reported Inhibition keyed by entry
Tested on: Candida albicans
Settings: 20 µM
Description: Antifungal activity against Candida albicans ATCC 90028 (CO-ADD:FG_001); MIC in YNB media using NBS plates, by OD630
Results with a measured potency or affinity are listed apart.
# unit: % | format: bare number

In the examples that follow, each entry is paired with its recorded Inhibition.
// returns reported Inhibition for input O=c1nc(Oc2ccccc2)nc2ncccn12
7.13

// returns reported Inhibition for input C=C(C)c1nc(Oc2ccccc2)nc(Oc2ccccc2)n1
0.6

// returns reported Inhibition for input CC(C1=C(CCN(C)C)Cc2ccccc21)c1ccccn1.O=C(O)/C=C\C(=O)O (stereo not drawn) [DIMETHINDENE MALEATE]
1.91

Next:
// returns reported Inhibition for input Cc1ccc(C(=N)Nc2ccccc2)cc1
3.37

// returns reported Inhibition for input CC1CC(C)(C)NC2(CCCC2)N1 (stereo not drawn)
-0.15

// returns reported Inhibition for input N=C(N)n1c(N)nc2ccccc2c1=O
0.23

// returns reported Inhibition for input COc1ccc2c(c1)CCCN2C(=N)Nc1ccc(Cl)cc1
3.95

// returns reported Inhibition for input O=C(O)/C=C/C(=O)N1Cc2cc3ccccc3nc2C1
1.99

// returns reported Inhibition for input CCC(C)NC(=O)CC(C)C (stereo not drawn)
-0.68

// returns reported Inhibition for input CCC(C)c1c(N)n(S(=O)(=O)c2ccc(C)cc2)oc1=O (stereo not drawn)
1.8

// returns reported Inhibition for input O=P(O)(O)c1cc(-c2ccccc2)oc1-c1ccccc1
5.26
